# assaySummary: Plasma pharmacokinetics of paclitaxel, pazopanib and lapatinib in cycle 1
# Assay type: in vivo, human
# studyConditions: human, plasma, intravenous, Paclitaxel Cmax, day 15; 80 mg m^−2 paclitaxel+800 mg pazopanib+1000 mg lapatinib; n=1; individual value
readoutKind: Cmax (ng/mL)

>>> endpointresult("CC(=O)O[C@H]1C(=O)[C@@]2(C)[C@H]([C@H](OC(=O)c3ccccc3)[C@]3(O)C[C@H](OC(=O)[C@H](O)[C@@H](NC(=O)c4ccccc4)c4ccccc4)C(C)=C1C3(C)C)[C@]1(OC(C)=O)CO[C@@H]1C[C@@H]2O")
2710

* * *

# assaySummary: Plasma pharmacokinetics of paclitaxel, pazopanib and lapatinib in cycle 1
# Format: in vivo, human
# studyConditions: human, plasma, intravenous, 50 mg m^−2, Paclitaxel Cmax, day 1 (pazopanib and lapatinib withheld); 50 mg m^−2 paclitaxel+800 mg pazopanib+1000 mg lapatinib; n=3; median (range)
readoutKind: Cmax (ng/mL)

>>> endpointresult("CC(=O)O[C@H]1C(=O)[C@@]2(C)[C@H]([C@H](OC(=O)c3ccccc3)[C@]3(O)C[C@H](OC(=O)[C@H](O)[C@@H](NC(=O)c4ccccc4)c4ccccc4)C(C)=C1C3(C)C)[C@]1(OC(C)=O)CO[C@@H]1C[C@@H]2O")
1270
